Target: Dual specificity protein kinase CLK1 (Homo sapiens, UniProt P49759)
Sequence (P49759 whole entry): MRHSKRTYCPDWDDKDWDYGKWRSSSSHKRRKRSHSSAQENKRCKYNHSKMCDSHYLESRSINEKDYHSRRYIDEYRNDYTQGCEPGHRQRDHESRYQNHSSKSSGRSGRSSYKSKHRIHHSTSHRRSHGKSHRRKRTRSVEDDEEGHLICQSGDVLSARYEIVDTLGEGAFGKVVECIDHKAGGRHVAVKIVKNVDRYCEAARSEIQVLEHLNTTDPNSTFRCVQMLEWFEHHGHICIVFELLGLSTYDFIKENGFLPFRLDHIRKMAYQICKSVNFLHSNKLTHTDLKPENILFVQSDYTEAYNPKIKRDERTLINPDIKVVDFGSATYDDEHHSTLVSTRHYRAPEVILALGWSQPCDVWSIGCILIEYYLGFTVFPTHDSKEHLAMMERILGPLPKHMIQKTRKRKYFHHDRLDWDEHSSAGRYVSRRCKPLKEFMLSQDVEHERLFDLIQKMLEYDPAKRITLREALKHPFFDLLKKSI
REPORTED PROPERTY: pIC50
The quantity pIC50 is defined as the negative base-10 logarithm of the molar concentration.

Under Dual specificity protein kinase CLK1 (Homo sapiens, UniProt P49759): pIC50 value of "COC(=O)Nc1cc(-c2cnc(OC[C@@](C)(N)CC(C)C)c(C#N)c2)ccn1" ?
5.77

====

Biological target: Acetylcholine receptor subunit alpha (Homo sapiens)
Sequence (P02708 whole entry): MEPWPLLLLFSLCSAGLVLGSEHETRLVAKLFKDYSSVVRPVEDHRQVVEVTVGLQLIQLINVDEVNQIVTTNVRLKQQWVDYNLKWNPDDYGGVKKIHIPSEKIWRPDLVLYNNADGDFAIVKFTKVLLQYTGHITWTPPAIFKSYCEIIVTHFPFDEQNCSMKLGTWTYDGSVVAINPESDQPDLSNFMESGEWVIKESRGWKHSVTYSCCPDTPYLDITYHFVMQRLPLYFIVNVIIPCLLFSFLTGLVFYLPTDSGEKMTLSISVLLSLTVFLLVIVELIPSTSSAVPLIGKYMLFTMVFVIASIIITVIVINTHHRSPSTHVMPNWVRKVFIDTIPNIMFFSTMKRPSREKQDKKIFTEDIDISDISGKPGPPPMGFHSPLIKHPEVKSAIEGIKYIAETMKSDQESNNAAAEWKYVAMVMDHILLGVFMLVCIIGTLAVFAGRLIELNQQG
Test: Inhibition of nicotinic acetylcholine receptor alpha 1 (unknown origin)
REPORTED PROPERTY: pIC50
The quantity pIC50 is defined as the negative base-10 logarithm of the molar concentration.

Need pIC50, item "COC(=O)Nc1cc(-c2cnc(OC[C@@](C)(N)CC(C)C)c(C)c2)ccn1"
5.66

====

Quick note: these are IC50 numbers for system: Cytochrome P450 2C9 (Homo sapiens, UniProt P11712)
Sequence (P11712 whole entry): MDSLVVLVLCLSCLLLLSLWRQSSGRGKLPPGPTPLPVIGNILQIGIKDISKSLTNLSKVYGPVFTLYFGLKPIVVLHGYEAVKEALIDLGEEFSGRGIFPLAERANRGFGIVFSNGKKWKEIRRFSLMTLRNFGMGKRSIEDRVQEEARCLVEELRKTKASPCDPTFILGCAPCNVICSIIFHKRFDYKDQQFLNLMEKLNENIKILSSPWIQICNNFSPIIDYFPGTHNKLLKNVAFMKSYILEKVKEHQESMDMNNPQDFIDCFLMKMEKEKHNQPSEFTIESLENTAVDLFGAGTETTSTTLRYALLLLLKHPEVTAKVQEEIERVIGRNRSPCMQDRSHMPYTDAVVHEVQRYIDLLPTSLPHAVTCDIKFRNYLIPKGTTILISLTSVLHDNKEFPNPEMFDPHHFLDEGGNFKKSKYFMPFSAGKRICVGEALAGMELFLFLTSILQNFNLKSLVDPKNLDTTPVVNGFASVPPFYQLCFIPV

Under Cytochrome P450 2C9 (Homo sapiens, UniProt P11712): IC50 value of "COC(=O)Nc1cc(-c2ccc(OC[C@@](C)(N)CC(C)C)c(C)n2)ccn1" ?
> 20 µM

# input for lookup
Under Cytochrome P450 2C9 (Homo sapiens, UniProt P11712): IC50 value of "CC(C)C[C@](C)(N)COc1cnc(-c2ccnc(C(F)F)c2)cc1C(F)F" ?
> 20 µM

====

Quick note: these are pIC50 numbers for system: Rho-associated protein kinase 2 (Homo sapiens, UniProt O75116)
Sequence (O75116 whole entry): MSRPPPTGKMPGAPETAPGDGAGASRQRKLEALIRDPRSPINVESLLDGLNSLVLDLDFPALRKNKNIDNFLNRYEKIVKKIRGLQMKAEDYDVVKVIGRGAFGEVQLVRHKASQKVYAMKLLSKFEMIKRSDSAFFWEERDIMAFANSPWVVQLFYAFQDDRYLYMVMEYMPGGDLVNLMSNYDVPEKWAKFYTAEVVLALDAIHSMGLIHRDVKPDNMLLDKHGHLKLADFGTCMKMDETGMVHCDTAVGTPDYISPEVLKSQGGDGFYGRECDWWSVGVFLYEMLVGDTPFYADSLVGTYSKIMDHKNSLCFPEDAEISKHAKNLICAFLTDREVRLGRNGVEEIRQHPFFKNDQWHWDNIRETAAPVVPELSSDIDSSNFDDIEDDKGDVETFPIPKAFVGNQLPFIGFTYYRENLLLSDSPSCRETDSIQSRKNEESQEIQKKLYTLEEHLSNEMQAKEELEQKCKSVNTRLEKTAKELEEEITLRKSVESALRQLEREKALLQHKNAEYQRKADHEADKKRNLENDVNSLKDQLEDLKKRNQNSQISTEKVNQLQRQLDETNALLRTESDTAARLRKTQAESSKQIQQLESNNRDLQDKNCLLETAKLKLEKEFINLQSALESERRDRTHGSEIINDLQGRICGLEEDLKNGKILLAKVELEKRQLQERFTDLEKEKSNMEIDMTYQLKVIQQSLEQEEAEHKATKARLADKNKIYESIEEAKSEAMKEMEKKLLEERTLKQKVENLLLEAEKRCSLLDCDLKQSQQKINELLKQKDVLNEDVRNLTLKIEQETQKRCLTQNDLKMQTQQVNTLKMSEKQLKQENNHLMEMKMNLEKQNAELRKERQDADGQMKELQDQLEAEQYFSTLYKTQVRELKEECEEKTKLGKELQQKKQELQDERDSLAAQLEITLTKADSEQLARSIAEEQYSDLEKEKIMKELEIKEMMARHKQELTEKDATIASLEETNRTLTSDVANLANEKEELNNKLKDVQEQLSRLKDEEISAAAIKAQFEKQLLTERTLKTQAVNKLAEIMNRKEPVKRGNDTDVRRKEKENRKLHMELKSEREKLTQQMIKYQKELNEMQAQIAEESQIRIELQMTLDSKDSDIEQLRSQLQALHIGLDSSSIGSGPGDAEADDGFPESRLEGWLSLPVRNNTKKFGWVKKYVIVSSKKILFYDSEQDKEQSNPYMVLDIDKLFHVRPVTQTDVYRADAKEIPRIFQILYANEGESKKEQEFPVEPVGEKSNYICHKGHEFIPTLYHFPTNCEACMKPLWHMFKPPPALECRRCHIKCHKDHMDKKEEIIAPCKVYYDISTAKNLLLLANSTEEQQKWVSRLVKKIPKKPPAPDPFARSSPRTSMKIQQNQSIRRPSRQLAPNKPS
The quantity pIC50 is defined as the negative base-10 logarithm of the molar concentration.

Sample records with pIC50:
Under Rho-associated protein kinase 2 (Homo sapiens, UniProt O75116): pIC50 value of "COC(=O)Nc1cc(-c2cc(C)c(OC[C@@](C)(N)CC(C)C)cn2)ccn1" ?
6.11

Under Rho-associated protein kinase 2 (Homo sapiens, UniProt O75116): pIC50 value of "COC(=O)Nc1cc(-c2cnc(OC[C@@](C)(N)CC(C)C)c(C#N)c2)ccn1" ?
5.96

# input for lookup
Under Rho-associated protein kinase 2 (Homo sapiens, UniProt O75116): pIC50 value of "COC(=O)Nc1cc(-c2ccc(OC[C@@](C)(N)CC(C)C)c(C(F)F)n2)ccn1" ?
6.85

====

molecules and their reported concentration at 5.75 h
Assay: Plasma concentration in STZ-induced diabetic peripheral neuropathic mechanical allodynia in overnight fasted Sprague-Dawley rat at 1 mg/kg, po measured at 5.75 hrs post dose
Type: ADME, organism-based
// note: answer is a bare numeric in nM

Sample records with concentration at 5.75 h:
Need concentration at 5.75 h, item "CC(C)C[C@](C)(N)COc1cnc(-c2ccnc(C(F)F)c2)cc1C(F)F"
80

Need concentration at 5.75 h, item "COC(=O)Nc1cc(-c2ccc(OC[C@@](C)(N)CC(C)C)c(C)n2)ccn1"
80

# input for lookup
Need concentration at 5.75 h, item "CC(C)C[C@](C)(N)COc1ccc(-c2ccnc(C(F)F)c2)nc1C(F)F"
84

====

Test: Chemical stability of the compound assessed as remaining product at pH 1 measured after 22 hrs
Format: physicochemical
Settings: buffer, read-out: Stability
REPORTED PROPERTY: remaining at 22 h (%)
// note: answer is a bare numeric in %

Need remaining at 22 h, item "COC(=O)Nc1cc(-c2ccc(OC[C@@](C)(N)CC(C)C)c(C)n2)ccn1"
100

====

Biological target: Tyrosine-protein kinase receptor TYRO3 (Homo sapiens)
Sequence (Q06418 whole entry): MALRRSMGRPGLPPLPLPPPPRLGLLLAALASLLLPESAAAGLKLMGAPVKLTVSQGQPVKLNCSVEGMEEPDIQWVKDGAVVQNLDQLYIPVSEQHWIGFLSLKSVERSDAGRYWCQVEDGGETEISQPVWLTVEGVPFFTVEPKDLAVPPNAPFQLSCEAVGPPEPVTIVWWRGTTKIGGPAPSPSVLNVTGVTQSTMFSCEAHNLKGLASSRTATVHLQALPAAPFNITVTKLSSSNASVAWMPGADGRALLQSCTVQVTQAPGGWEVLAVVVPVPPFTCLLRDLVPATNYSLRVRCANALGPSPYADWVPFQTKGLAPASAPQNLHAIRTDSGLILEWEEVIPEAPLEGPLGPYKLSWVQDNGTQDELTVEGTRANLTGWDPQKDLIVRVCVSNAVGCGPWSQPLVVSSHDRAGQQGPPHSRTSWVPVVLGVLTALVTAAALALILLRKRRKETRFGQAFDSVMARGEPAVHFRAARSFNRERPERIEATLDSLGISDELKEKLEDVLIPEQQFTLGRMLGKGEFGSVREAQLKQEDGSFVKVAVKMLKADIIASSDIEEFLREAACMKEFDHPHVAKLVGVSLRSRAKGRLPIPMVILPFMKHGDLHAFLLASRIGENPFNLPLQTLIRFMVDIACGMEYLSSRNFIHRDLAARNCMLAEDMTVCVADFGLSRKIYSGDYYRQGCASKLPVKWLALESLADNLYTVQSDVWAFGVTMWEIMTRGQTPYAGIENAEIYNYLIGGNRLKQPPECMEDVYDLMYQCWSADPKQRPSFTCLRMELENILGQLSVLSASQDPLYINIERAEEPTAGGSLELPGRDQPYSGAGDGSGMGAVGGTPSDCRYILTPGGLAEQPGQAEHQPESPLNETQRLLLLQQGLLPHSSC
REPORTED PROPERTY: pIC50
The quantity pIC50 is defined as the negative base-10 logarithm of the molar concentration.

Need pIC50, item "COC(=O)Nc1cc(-c2ccc(OC[C@@](C)(N)CC(C)C)c(C(F)F)n2)ccn1"
5.89

====

Assay: Tmax in rat at 3 mg/kg, po
Format: ADME, organism-based
Conditions: in vivo
REPORTED PROPERTY: Tmax (h)
// note: answer is a bare numeric in h

Need Tmax, item "CC(C)C[C@](C)(N)COc1cnc(-c2ccnc(C(F)F)c2)cc1C(F)F"
3.7

====

Assay: Efflux ratio of permeability in human Caco-2 cells
Type: ADME, cell-based
REPORTED PROPERTY: efflux ratio
Keep it simple and answer with nothing but the number.

Sample records with efflux ratio:
Need efflux ratio, item "COc1cc(-c2ccnc(NC(C)=O)c2)ccc1OC[C@@H](N)CC(C)C"
4.2

Need efflux ratio, item "COC(=O)Nc1cc(-c2cnc(OC[C@@](C)(N)CC(C)C)c(C)c2)ccn1"
1

Need efflux ratio, item "CC(=O)Nc1cc(-c2ccc(OC[C@@](C)(N)CC(C)C)c(C#N)c2)ccn1"
2.5

Need efflux ratio, item "COC(=O)Nc1cc(-c2ccc(OC[C@@](C)(N)CC(C)C)c(C)n2)ccn1"
1.1

Need efflux ratio, item "CC(=O)Nc1cc(-c2ccc(OC[C@@H](N)CC(C)C)c(C#N)c2)ccn1"
6.3

# input for lookup
Need efflux ratio, item "CC(C)C[C@](C)(N)COc1cnc(-c2ccnc(C(F)F)c2)cc1C(F)F"
0.7

====

Biological target: Dual specificity mitogen-activated protein kinase kinase 1 (Homo sapiens, UniProt Q02750)
Sequence (Q02750 whole entry): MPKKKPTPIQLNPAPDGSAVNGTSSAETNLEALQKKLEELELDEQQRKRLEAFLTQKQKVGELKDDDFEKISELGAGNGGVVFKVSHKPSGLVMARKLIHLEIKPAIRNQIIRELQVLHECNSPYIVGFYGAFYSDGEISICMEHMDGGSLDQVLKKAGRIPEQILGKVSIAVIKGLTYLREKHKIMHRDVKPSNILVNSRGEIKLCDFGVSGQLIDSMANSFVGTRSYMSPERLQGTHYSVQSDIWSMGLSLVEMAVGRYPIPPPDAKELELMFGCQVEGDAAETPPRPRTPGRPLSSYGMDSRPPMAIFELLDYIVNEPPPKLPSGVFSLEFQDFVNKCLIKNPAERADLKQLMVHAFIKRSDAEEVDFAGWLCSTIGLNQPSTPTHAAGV
Assay: Inhibition of MAP2K1 (unknown origin)
REPORTED PROPERTY: pIC50
The quantity pIC50 is defined as the negative base-10 logarithm of the molar concentration.

Need pIC50, item "COC(=O)Nc1cc(-c2cnc(OC[C@@](C)(N)CC(C)C)c(Cl)c2)ccn1"
5.73

====

Biological target: Dual specificity protein kinase CLK4 (Homo sapiens)
Sequence (Q9HAZ1 whole entry): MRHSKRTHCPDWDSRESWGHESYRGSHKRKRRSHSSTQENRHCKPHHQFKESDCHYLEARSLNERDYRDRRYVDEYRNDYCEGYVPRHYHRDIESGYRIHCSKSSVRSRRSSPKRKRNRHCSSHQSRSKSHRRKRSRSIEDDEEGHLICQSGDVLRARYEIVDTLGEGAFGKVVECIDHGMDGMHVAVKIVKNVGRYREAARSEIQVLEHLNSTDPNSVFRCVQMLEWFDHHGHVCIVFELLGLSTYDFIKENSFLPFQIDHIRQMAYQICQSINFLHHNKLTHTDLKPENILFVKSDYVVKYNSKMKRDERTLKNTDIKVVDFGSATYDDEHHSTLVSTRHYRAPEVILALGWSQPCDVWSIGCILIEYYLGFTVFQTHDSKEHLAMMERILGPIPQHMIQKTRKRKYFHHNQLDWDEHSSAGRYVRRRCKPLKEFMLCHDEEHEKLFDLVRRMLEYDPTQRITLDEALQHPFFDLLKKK
REPORTED PROPERTY: pIC50
The quantity pIC50 is defined as the negative base-10 logarithm of the molar concentration.

Need pIC50, item "COC(=O)Nc1cc(-c2cnc(OC[C@@](C)(N)CC(C)C)c(Cl)c2)ccn1"
6.13

====

Assay: Metabolic stability in rat liver microsomes assessed as parent compound remaining at 0.5 uM incubated for 10 mins in presence of NADPH by LC-MS/MS analysis
Assay type: ADME, Microsome
Details: read-out: Stability
Rule: remaining at 10 min, 0.5 µM below 80% gives Fulfilled, anything at or above gives Not fulfilled.

Recorded results for 5 compounds are shown here.
Confirm or reject: remaining at 10 min, 0.5 µM of "COC(=O)Nc1cc(-c2ccc(OC[C@@](C)(N)CC(C)C)c(C)n2)ccn1" lies strictly below 80%
Not fulfilled

Confirm or reject: remaining at 10 min, 0.5 µM of "COC(=O)Nc1cc(-c2cc(C)c(OC[C@@](C)(N)CC(C)C)cn2)ccn1" lies strictly below 80%
Not fulfilled

Confirm or reject: remaining at 10 min, 0.5 µM of "Cc1cc(-c2cc(C)c(OC[C@@](C)(N)CC(C)C)cn2)ccn1" lies strictly below 80%
Fulfilled

Confirm or reject: remaining at 10 min, 0.5 µM of "CC(=O)Nc1cc(-c2ccc(OC[C@@H](N)CC(C)C)c(Cl)c2)ccn1" lies strictly below 80%
Not fulfilled

Confirm or reject: remaining at 10 min, 0.5 µM of "CC(=O)Nc1cc(-c2ccc(OC[C@@H](N)CC(C)C)c(C#N)c2)ccn1" lies strictly below 80%
Not fulfilled

More entries:
Confirm or reject: remaining at 10 min, 0.5 µM of "COC(=O)Nc1cc(-c2cc(Cl)c(OC[C@@](C)(N)CC(C)C)cn2)ccn1" lies strictly below 80%
Not fulfilled

Confirm or reject: remaining at 10 min, 0.5 µM of "Cc1cc(-c2cc(C(F)(F)F)c(OC[C@@](C)(N)CC(C)C)cn2)ccn1" lies strictly below 80%
Fulfilled

Confirm or reject: remaining at 10 min, 0.5 µM of "CC(=O)Nc1cc(-c2ccc(OC[C@@](C)(N)CC(C)C)c(C(F)F)c2)ccn1" lies strictly below 80%
Not fulfilled

====

Assay: Metabolic stability in mouse liver microsomes assessed as parent compound remaining at 0.5 uM incubated for 10 mins in presence of NADPH by LC-MS/MS analysis
Assay type: ADME, Microsome
Conditions: liver microsomes, read-out: Stability
REPORTED PROPERTY: remaining at 10 min, 0.5 µM (%)
// note: answer is a bare numeric in %

Sample records with remaining at 10 min, 0.5 µM:
Need remaining at 10 min, 0.5 µM, item "CC(=O)Nc1cc(-c2ccc(OC[C@@H](N)CC(C)C)c(F)c2)ccn1"
79

Need remaining at 10 min, 0.5 µM, item "CC(=O)Nc1cc(-c2ccc(OC[C@@](C)(N)CC(C)C)c(OC(F)(F)F)c2)ccn1"
27

Need remaining at 10 min, 0.5 µM, item "COC(=O)Nc1cc(-c2ccc(OC[C@@](C)(N)CC(C)C)c(C(F)F)n2)ccn1"
84

Need remaining at 10 min, 0.5 µM, item "CC(=O)Nc1cc(-c2cc(F)c(OC[C@@H](N)CC(C)C)cc2F)ccn1"
70

Need remaining at 10 min, 0.5 µM, item "Cc1cc(-c2cc(C(F)(F)F)c(OC[C@@](C)(N)CC(C)C)cn2)ccn1"
65

Need remaining at 10 min, 0.5 µM, item "Cc1cc(-c2cc(C(F)F)c(OC[C@@](C)(N)CC(C)C)cn2)ccn1"
76

More entries:
Need remaining at 10 min, 0.5 µM, item "Cc1cc(-c2cc(Cl)c(OC[C@@](C)(N)CC(C)C)cn2)ccn1"
71

Need remaining at 10 min, 0.5 µM, item "COC(=O)Nc1cc(-c2cc(C)c(OC[C@@](C)(N)CC(C)C)cn2)ccn1"
99

Need remaining at 10 min, 0.5 µM, item COC(=O)Nc1cc(-c2ccc(OC[C@@](C)(N)CC(C)C)cn2)ccn1 (racemic)
93

Need remaining at 10 min, 0.5 µM, item "COC(=O)Nc1cc(-c2ccc(OC[C@@](C)(N)CC(C)C)c(C#N)c2)ccn1"
69
